- measurementTarget: human TLR7 (Homo sapiens)
- Construct: host or cells: HEK-Blue TLR7 cells (engineered human embryonic kidney cells)
- protocolNotes: HEK-Blue TLR7 reporter assay (SEAP reporter)
- Format: cell-based
- testContext: HEK-Blue TLR7 cells, 18 h treatment, SEAP readout; average if more than one assay; read-out: TLR7 Agonism HEK Blue ™ Assay EC50
- Procedure: Table A presents biological activity data for compounds disclosed herein. One set of data relates TLR7 agonism activity using the HEK-Blue™ TLR7 reporter assay, as described in Example 11 hereinbelow. […] HEK-Blue™ TLR7 cells were added to each well of a 384-well tissue-culture plate (15,000 cells per well) and incubated 16-18 h at 37° C., 5% CO2. […] EC50's can be determined with software such as Graphpad Prism™.
So basically: is EC50 under 4 nM? Then MET. Not under? Then NOT MET.

{"columns": ["molecule", "assignedLabel"],
 "data": [
  ["COCCNCc1ccc(Oc2ccc3cc2C/C=C/CCOc2nc(N)c4nc(O)n(c4n2)C3)cc1", "MET"],
  ["COC(=O)CNCc1ccc(Oc2ccc3cc2C/C=C/CCOc2nc(N)c4nc(O)n(c4n2)C3)cc1", "NOT MET"],
  ["Nc1nc2nc3c1nc(O)n3Cc1ccc(-c3ccc(CNC4CCC4)cc3)c(c1)C/C=C\\CCO2", "MET"],
  ["Nc1nc2nc3c1nc(O)n3Cc1cc(cc(Oc3ccc(CNC4CC4)cc3)c1)C/C=C\\CCO2", "NOT MET"],
  ["Nc1nc2nc3c1nc(O)n3Cc1ccc(Oc3ccc(CNC4CC4)cc3)c(c1)CCCCCO2", "NOT MET"],
  ["Nc1nc2nc3c1nc(O)n3Cc1ccc(O)c(c1)C/C=C/CCO2 [Compound B3, reference compound]", "NOT MET"],
  ["Nc1nc2nc3c1nc(O)n3Cc1ccc(-c3cnn(CCNC4CCC4)c3)c(c1)CCCCCO2", "MET"],
  ["Nc1nc2nc3c1nc(O)n3Cc1ccc(-c3ccc(CNC4CCC4)cc3)c(c1)C/C=C/CCCO2", "MET"],
  ["Nc1nc2nc3c1nc(O)n3Cc1cc(cc(Oc3ccc(CNC4CCC4)cc3)c1)C/C=C/CCO2", "NOT MET"],
  ["Nc1nc2nc3c1nc(O)n3Cc1ccc(-c3cnn(CCNC4CC4)c3)c(c1)C/C=C\\CCO2", "MET"],
  ["Nc1nc2nc3c1nc(O)n3Cc1ccc(-c3ccc(CNC4CCOCC4)cc3)c(c1)C/C=C\\CCO2", "MET"],
  ["Nc1nc2nc3c1nc(O)n3Cc1ccc(-c3cccc(C(=O)NC4CNC4)c3)c(c1)C/C=C/CCO2", "NOT MET"],
  ["Nc1nc2nc3c1nc(O)n3Cc1ccc(-c3cc(CNC4CCC4)[nH]n3)c(c1)C/C=C\\CCO2", "MET"],
  ["Nc1nc2nc3c1nc(O)n3Cc1ccc(Oc3ccc(C(=O)NC4CNC4)cc3)c(c1)C/C=C\\CCO2", "NOT MET"],
  ["Nc1nc2nc3c1nc(O)n3Cc1cc(cc(Oc3ccc(CNC4CC4)cc3)c1)C/C=C/CCO2", "NOT MET"],
  ["Nc1nc2nc3c1nc(O)n3Cc1cccc(c1)C/C=C/CCO2 [Compound B1, reference compound]", "NOT MET"],
  ["Nc1nc2nc3c1nc(O)n3Cc1ccc(-c3cc(C(=O)NCCCN4CCCC4=O)[nH]n3)c(c1)C/C=C/CCO2", "NOT MET"],
  ["Nc1nc2nc3c1nc(O)n3Cc1ccc(-c3ccc(CNC4CCC4)cc3)c(c1)OCCCO2", "NOT MET"],
  ["Nc1nc2nc3c1nc(O)n3Cc1ccc(-c3cnn(CC(=O)NC4CNC4)c3)c(c1)C/C=C\\CCO2", "MET"],
  ["Nc1nc2nc3c1nc(O)n3Cc1ccc(-c3cnn(CC(=O)NC4CNC4)c3)c(c1)C/C=C/CCO2", "NOT MET"],
  ["Nc1nc2nc3c1nc(O)n3Cc1ccc(-c3ccc(CNC4CC(O)C4)cc3)c(c1)C/C=C/CCO2 (centres unmarked) [IIb-24]", "MET"],
  ["Nc1nc2nc3c1nc(O)n3Cc1ccc(-c3cc(CNC4CCC4)[nH]n3)c(c1)C/C=C/CCO2", "MET"],
  ["CC(=O)N1CC(NCc2ccc(-c3ccc4cc3C/C=C\\CCOc3nc(N)c5nc(O)n(c5n3)C4)cc2)C1", "MET"],
  ["Nc1nc2nc3c1nc(O)n3Cc1ccc(-c3cn[nH]c3)c(c1)C/C=C/CCO2", "NOT MET"],
  ["Nc1nc2nc3c1nc(O)n3Cc1ccc(-c3ccc(CNC4CCC4)cc3)c(c1)CCCCCO2", "NOT MET"],
  ["Nc1nc2nc3c1nc(O)n3Cc1ccc(OCC(=O)NC3CNC3)c(c1)C/C=C/CCO2", "NOT MET"]
]}

* * *

- measurementTarget: human TLR7 (Homo sapiens, UniProt Q9NYK1)
- Construct: host or cells: HEK-Blue TLR7 cells (engineered human embryonic kidney cells)
- Sequence (Q9NYK1 27-1049): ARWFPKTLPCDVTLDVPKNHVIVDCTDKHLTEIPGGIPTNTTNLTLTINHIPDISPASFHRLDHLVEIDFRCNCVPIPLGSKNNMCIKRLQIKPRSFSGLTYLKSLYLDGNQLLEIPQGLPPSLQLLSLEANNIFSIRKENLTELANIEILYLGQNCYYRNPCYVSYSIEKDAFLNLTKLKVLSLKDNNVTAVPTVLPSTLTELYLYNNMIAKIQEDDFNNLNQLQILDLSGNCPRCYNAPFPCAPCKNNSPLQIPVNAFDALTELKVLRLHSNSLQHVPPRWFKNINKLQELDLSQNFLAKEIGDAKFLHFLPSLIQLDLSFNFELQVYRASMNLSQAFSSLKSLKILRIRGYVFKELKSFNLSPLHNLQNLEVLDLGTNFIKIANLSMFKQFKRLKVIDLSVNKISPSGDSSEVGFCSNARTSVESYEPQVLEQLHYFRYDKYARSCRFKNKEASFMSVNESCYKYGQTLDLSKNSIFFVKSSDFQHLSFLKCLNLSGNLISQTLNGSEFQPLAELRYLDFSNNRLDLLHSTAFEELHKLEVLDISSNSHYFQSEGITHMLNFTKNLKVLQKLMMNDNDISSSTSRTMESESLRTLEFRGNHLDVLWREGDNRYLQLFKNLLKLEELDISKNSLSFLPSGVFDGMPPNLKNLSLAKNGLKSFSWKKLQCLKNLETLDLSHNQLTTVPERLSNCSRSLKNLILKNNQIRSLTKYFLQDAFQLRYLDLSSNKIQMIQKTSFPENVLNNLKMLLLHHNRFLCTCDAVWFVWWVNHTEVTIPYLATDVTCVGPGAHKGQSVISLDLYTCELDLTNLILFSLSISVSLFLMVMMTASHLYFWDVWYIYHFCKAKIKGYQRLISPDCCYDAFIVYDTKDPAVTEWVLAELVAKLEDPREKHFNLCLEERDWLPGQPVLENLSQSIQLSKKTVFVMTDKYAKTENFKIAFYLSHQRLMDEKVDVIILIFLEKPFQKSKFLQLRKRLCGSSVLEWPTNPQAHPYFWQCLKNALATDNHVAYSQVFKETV
- protocolNotes: HEK-Blue TLR7 reporter assay (SEAP reporter)
- Type: cell-based
- testContext: HEK-Blue TLR7 cells, 18 h treatment, SEAP readout; average if more than one assay; read-out: TLR7 Agonism HEK Blue ™ Assay EC50
- Procedure: Table A presents biological activity data for compounds disclosed herein. One set of data relates TLR7 agonism activity using the HEK-Blue™ TLR7 reporter assay, as described in Example 11 hereinbelow. […] HEK-Blue™ TLR7 cells were added to each well of a 384-well tissue-culture plate (15,000 cells per well) and incubated 16-18 h at 37° C., 5% CO2. […] EC50's can be determined with software such as Graphpad Prism™.
We begin with a simple list: items and their reported log10 of EC50.
quantityName: log10 of EC50 (log10 of the value in nM)

{"columns": ["compound", "log10 of EC50"],
 "data": [
  ["Nc1nc2nc3c1nc(O)n3Cc1ccc(-c3ccc(CNC4CC(O)C4)cc3)c(c1)C/C=C/CCO2 (centres unmarked) [IIb-23]", -0.09],
  ["Nc1nc2nc3c1nc(O)n3Cc1ccc(Oc3ccc(CO)cc3)c(c1)C/C=C/CCO2", 1.71],
  ["Nc1nc2nc3c1nc(O)n3Cc1cccc(c1)C/C=C\\CCO2 [Compound B2, reference compound]", 1.52],
  ["Nc1nc2nc3c1nc(O)n3Cc1ccc(OC3CCNCC3)c(c1)C/C=C/CCO2", 0.57],
  ["Nc1nc2nc3c1nc(O)n3Cc1ccc(-c3cnn(CCN4CCOCC4)c3)c(c1)C/C=C/CCO2", 0.58],
  ["Nc1nc2nc3c1nc(O)n3Cc1ccc(Oc3cccc(CNC4CC4)c3)c(c1)C/C=C\\CCO2", 0.86],
  ["Nc1nc2nc3c1nc(O)n3Cc1cc(cc(OC3CCNCC3)c1)C/C=C/CCO2", 1.36],
  ["Nc1nc2nc3c1nc(O)n3Cc1ccc(-c3ccc(C(=O)NC4CNC4)cc3)c(c1)C/C=C\\CCO2", 0.20],
  ["Nc1nc2nc3c1nc(O)n3Cc1ccc(-c3ccc(CNC4COC4)cc3)c(c1)C/C=C\\CCO2", -0.38],
  ["Nc1nc2nc3c1nc(O)n3Cc1ccc(-c3ccc(C(=O)NC4CNC4)cc3)c(c1)C/C=C/CCO2", 0.61],
  ["Nc1nc2nc3c1nc(O)n3Cc1ccc(-c3cnn(CCNC4CC4)c3)c(c1)CCCCCO2", 0.46],
  ["Nc1nc2nc3c1nc(O)n3Cc1ccc(-c3ccc(CNC4CCC4)cc3)c(c1)C/C=C/CCO2", 0.04],
  ["CC1(NCc2ccc(-c3ccc4cc3C/C=C/CCOc3nc(N)c5nc(O)n(c5n3)C4)cc2)CCC1", -0.59],
  ["Nc1nc2nc3c1nc(O)n3Cc1ccc(Oc3cccc(CNC4CC4)c3)c(c1)C/C=C/CCO2", 0.72],
  ["Nc1nc2nc3c1nc(O)n3Cc1ccc(-c3ccc(CNC4CC(O)C4)cc3)c(c1)C/C=C\\CCO2 (centres unmarked)", -0.38],
  ["Nc1nc2nc3c1nc(O)n3Cc1ccc(OCC(=O)NC3CNC3)c(c1)C/C=C\\CCO2", 0.72],
  ["Nc1nc2nc3c1nc(O)n3Cc1cc(cc(Oc3cccc(CNC4CCC4)c3)c1)C/C=C/CCO2", 1.28]
]}

* * *

- measurementTarget: UniProt:Q9NYK1
- protocolNotes: HEK-Blue TLR7 reporter assay (SEAP reporter)
- testContext: HEK-Blue TLR7 cells, 18 h treatment, SEAP readout; average if more than one assay; read-out: TLR7 Agonism HEK Blue ™ Assay EC50
quantityName: log10 EC50 (log10 of the value in nM)

{"columns": ["molecule", "dataValue"],
 "data": [
  ["Nc1nc2nc3c1nc(O)n3Cc1ccc(-c3ccc(CNC4CCC4)cc3)c(c1)CCCCCCO2", 0.58],
  ["Nc1nc2nc3c1nc(O)n3Cc1ccc(-c3ccc(CNC4CC4)nc3)c(c1)C/C=C/CCO2", -0.55],
  ["Nc1nc2nc3c1nc(O)n3Cc1ccc(-c3cnn(CCNC4CC4)c3)c(c1)C/C=C/CCO2", -0.17],
  ["Nc1nc2nc3c1nc(O)n3Cc1ccc(Oc3ccc(CNC4CC4)cc3)c(c1)C/C=C/CCO2", 0.60],
  ["Nc1nc2nc3c1nc(O)n3Cc1ccc(Oc3ccc(CNC4CC4)cc3)c(c1)C/C=C\\CCO2", -0.04],
  ["Nc1nc2nc3c1nc(O)n3Cc1ccc(O)c(c1)CCCCCO2 [Compound B5, reference compound]", 2.76],
  ["Nc1nc2nc3c1nc(O)n3Cc1ccc(-c3ccc(CNC4CCC4)cc3)c(c1)OCCCCO2", 0.00],
  ["Nc1nc2nc3c1nc(O)n3Cc1ccc(-c3cnn(C4CNC4)c3)c(c1)C/C=C/CCO2", 0.18],
  ["Nc1nc2nc3c1nc(O)n3Cc1cc(cc(Oc3ccc(CNC4CCC4)cc3)c1)C/C=C\\CCO2", -0.03],
  ["Nc1nc2nc3c1nc(O)n3Cc1ccc(-c3ccc(CNC4CCC4)nc3)c(c1)C/C=C/CCO2", -0.66],
  ["Nc1nc2nc3c1nc(O)n3Cc1ccc(-c3cnn(CCNC4CCC4)c3)c(c1)C/C=C/CCO2", -0.66],
  ["Nc1nc2nc3c1nc(O)n3Cc1ccc(-c3cccc(C(=O)NC4CNC4)c3)c(c1)C/C=C\\CCO2", 0.51],
  ["Nc1nc2nc3c1nc(O)n3Cc1ccc(O)c(c1)C/C=C\\CCO2 [Compound B4, reference compound]", 1.23],
  ["Nc1nc2nc3c1nc(O)n3Cc1ccc(Oc3cccc(CNC4CCC4)c3)c(c1)C/C=C\\CCO2", 0.62],
  ["Nc1nc2nc3c1nc(O)n3Cc1ccc(Nc3cccc(CNC4CCC4)c3)c(c1)C/C=C/CCO2", 1.18],
  ["Nc1nc2nc3c1nc(O)n3Cc1ccc(-c3ccc(CNC4CCC4)cc3)c(c1)C/C=C\\CCCO2", -0.04]
]}
